Target: T1, recombinant human TfR-1, His-tagged (Sino Biological 11020-H07H) (human, UniProt P02786 89-760)
T1 construct: bought; His-tagged; also called hTfR1; hTfR-1
T1 sequence (P02786 89-760 limits assumed): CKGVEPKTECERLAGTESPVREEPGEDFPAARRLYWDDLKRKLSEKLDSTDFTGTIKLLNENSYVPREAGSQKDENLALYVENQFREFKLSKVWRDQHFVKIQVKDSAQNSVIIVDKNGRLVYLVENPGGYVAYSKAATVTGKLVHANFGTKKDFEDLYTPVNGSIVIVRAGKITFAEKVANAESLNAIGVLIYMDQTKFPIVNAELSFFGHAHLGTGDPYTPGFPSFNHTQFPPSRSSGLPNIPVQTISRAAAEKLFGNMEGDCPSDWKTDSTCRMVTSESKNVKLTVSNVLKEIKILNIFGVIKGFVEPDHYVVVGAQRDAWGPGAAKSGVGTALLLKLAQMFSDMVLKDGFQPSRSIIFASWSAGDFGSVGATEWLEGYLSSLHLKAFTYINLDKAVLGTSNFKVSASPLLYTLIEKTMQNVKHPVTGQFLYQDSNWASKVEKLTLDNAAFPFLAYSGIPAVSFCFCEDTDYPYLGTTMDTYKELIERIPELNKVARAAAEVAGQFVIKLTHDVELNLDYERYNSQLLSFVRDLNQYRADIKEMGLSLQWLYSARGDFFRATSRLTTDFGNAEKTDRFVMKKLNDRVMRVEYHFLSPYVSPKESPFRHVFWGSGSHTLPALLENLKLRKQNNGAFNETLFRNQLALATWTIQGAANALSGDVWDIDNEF
Experiment: SPR, His-captured TfR1
Procedure: Detailed binding kinetic analyses were performed to gain a better understanding of the relationship between affinity and brain penetration of the Clone C variants. Biacore surface plasmon resonance (SPR) analysis using immobilised mouse and human TfR-1 was performed for selected clones (Table 2). Binding kinetics of VNAR-Fcs was determined by surface plasmon resonance (Biacore T200, GE Healthcare). […] Sensorgrams were fitted and kinetic constants were determined using Biacore T200 Evaluation software. […]
reported-metric: kon (M⁻¹ s⁻¹)

[[record]]
binder = "Clone C VNAR-hFc fusion (Fc fusion, not shown: a dimerising Fc or GST, bivalent VNAR-Fc; also called Clone C-hFc) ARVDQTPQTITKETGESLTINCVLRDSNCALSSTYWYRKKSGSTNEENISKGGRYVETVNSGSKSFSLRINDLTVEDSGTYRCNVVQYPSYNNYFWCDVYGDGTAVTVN"
reported_measurement = 240000

[[record]]
binder = "Clone C variant 13 VNAR-hFc (Fc fusion, not shown: a dimerising Fc or GST, also called Clone C v13; Clone C var; 13) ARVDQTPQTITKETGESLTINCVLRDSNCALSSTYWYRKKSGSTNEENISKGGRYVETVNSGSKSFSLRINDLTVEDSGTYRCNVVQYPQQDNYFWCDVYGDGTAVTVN"
reported_measurement = 297000

[[record]]
binder = "Clone C variant 21 VNAR-hFc (Fc fusion, not shown: a dimerising Fc or GST) ARVDQTPQTITKETGESLTINCVLRDSNCALSSTYWYRKKSGSTNEENISKGGRYVETVNSGSKSFSLRINDLTVEDSGTYRCNVVQYPSIFNYFWCDVYGDGTAVTVN"
reported_measurement = 95500

[[record]]
binder = "Clone C variant 2 VNAR-hFc (Fc fusion, not shown: a dimerising Fc or GST) ARVDQTPQTITKETGESLTINCVLRDSNCALSSTYWYRKKSGSTNEENISKGGRYVETVNSGSKSFSLRINDLTVEDSGTYRCNVLQRPSYNNYFWCDVYGDGTAVTVN"
reported_measurement = 13700

